Each recorded value in this set is attributed to ChEMBL document CHEMBL3045012.

Test system: Bacillus subtilis
PROTOCOL_TEXT: Antimicrobial activity against Bacillus subtilis MTCC 430 assessed as growth inhibition after 24 hr by agar streak dilution technique
Type: functional
SETTINGS: MTCC 430, 24 h
Reported MIC values for the following compounds.
State the answer as a number, implicitly in µg/mL.

Before answering, review these 3 worked examples.
Cc1ccccc1N1C(=O)C(Cl)C1c1cc2ccccc2nc1Cl (stereo not drawn) : 100
O=C1CSC(c2cc3ccccc3nc2Cl)N1c1ccccc1Cl (stereo not drawn) : 12.5
O=C1C(Cl)C(c2cc3ccccc3nc2Cl)N1c1ccccc1 (stereo not drawn) : 100

Entry O=C1C(Cl)C(c2cc3ccccc3nc2Cl)N1c1ccc(F)cc1 (stereo not drawn) ; MIC = 25

Entry O=C1C(Cl)C(c2cc3ccccc3nc2Cl)N1c1ccccc1[N+](=O)[O-] (stereo not drawn) ; MIC = 62.5

Entry Cc1cccc(N2C(=O)CSC2c2cc3ccccc3nc2Cl)c1 (stereo not drawn) ; MIC = 100

Entry O=C1C(Cl)C(c2cc3ccccc3nc2Cl)N1c1ccc([N+](=O)[O-])cc1 (stereo not drawn) ; MIC = 50

---

System: Escherichia coli
PROTOCOL_TEXT: Antimicrobial activity against Escherichia coli MTCC 739 assessed as diameter of growth inhibition zone after 24 hr by paper disk diffusion technique; also: test concentration or dose not given here
Format: functional
PARAMETER_MEASURED: diameter of the inhibition zone (DIZ) (mm)
State the answer as a number, implicitly in mm.

O=C1C(Cl)C(c2cc3ccccc3nc2Cl)N1c1ccc(Cl)cc1 (stereo not given) : 22
O=C(O)c1cn(C2CC2)c2cc(N3CCNCC3)c(F)cc2c1=O [CIPROFLOXACIN] : 32
O=C1CSC(c2cc3ccccc3nc2Cl)N1c1ccc(Cl)cc1 (stereo not given) : 23

Please find the next compound below.
Entry O=C1C(Cl)C(c2cc3ccccc3nc2Cl)N1c1ccccc1Cl (stereo not given) ; diameter of the inhibition zone (DIZ) = 21

---

Reported diameter of the inhibition zone (DIZ) values for the following compounds.
Test system: Pseudomonas aeruginosa
PROTOCOL_TEXT: Antimicrobial activity against Pseudomonas aeruginosa MTCC 741 assessed as diameter of growth inhibition zone after 24 hr by paper disk diffusion technique; also: test concentration or dose not given here
Format: functional
State the answer as a number, implicitly in mm.

O=C1C(Cl)C(c2cc3ccccc3nc2Cl)N1c1ccccc1Cl (centres undefined) : 20
Cc1cnc(N2C(=O)CSC2c2cc3ccccc3nc2Cl)s1 (centres undefined) : 22

O=C1CSC(c2cc3ccccc3nc2Cl)N1c1ccc(Cl)cc1 (centres undefined) on Pseudomonas aeruginosa gives diameter of the inhibition zone (DIZ) = 24

O=C1CSC(c2cc3ccccc3nc2Cl)N1c1ccc([N+](=O)[O-])cc1 (centres undefined) on Pseudomonas aeruginosa gives diameter of the inhibition zone (DIZ) = 25

O=C1CSC(c2cc3ccccc3nc2Cl)N1c1ccccc1 (centres undefined) on Pseudomonas aeruginosa gives diameter of the inhibition zone (DIZ) = 13

O=C1C(Cl)C(c2cc3ccccc3nc2Cl)N1c1cccc(Cl)c1 (centres undefined) on Pseudomonas aeruginosa gives diameter of the inhibition zone (DIZ) = 22

Cc1ccc(N2C(=O)C(Cl)C2c2cc3ccccc3nc2Cl)cc1 (centres undefined) on Pseudomonas aeruginosa gives diameter of the inhibition zone (DIZ) = 13

Cc1ccc(N2C(=O)CSC2c2cc3ccccc3nc2Cl)cc1 (centres undefined) on Pseudomonas aeruginosa gives diameter of the inhibition zone (DIZ) = 20

O=C1CSC(c2cc3ccccc3nc2Cl)N1c1ccc(F)cc1 (centres undefined) on Pseudomonas aeruginosa gives diameter of the inhibition zone (DIZ) = 24
